Measured values drawn from patent US20240051940A1 for this set.

# System: HCC827
# TEST: Cell growth inhibition (CellTiter-Glo), HCC827
# Format: cell-based
# SETTINGS: Homo sapiens, 72 h, HCC827 cells, 3 days after administration
REPORTED METRIC: GI50

// known answers, use as guide
line_notation=COc1cc(N2CCC(N3CCN(C)CC3)CC2)c(C)cc1Nc1ncnc(Nc2ccccc2NS(C)(=O)=O)n1 reported_metric=GI50 result="30 to 100 nM"
line_notation=COc1cc(N2CCC(N3CCN(C)CC3)CC2)c(C)cc1Nc1ncc(Cl)c(Nc2ccc3nccnc3c2NS(C)(=O)=O)n1 reported_metric=GI50 result="< 30 nM"
line_notation=CCc1cc(Nc2ncc(Br)c(Nc3ccc4nccnc4c3NS(C)(=O)=O)n2)c(OC)cc1N1CCC(N2CCN(C)CC2)CC1 reported_metric=GI50 result="< 30 nM"

Then there is this molecule:
Any idea what GI50 came out for COc1cc(N2CCC(N3CCN(C)CC3)CC2)c(C)cc1Nc1ncc(Br)c(Nc2ccc3nccnc3c2NS(C)(=O)=O)n1 on HCC827?
30 to 100 nM
